assayComment: Pharmacokinetic profile of IUdR (100 mg/kg) with and without Tipiracil in rats following single oral administration
Assay type: in vivo, male Sprague-Dawley rats
testParameters: male, Sprague-Dawley, rat, plasma, oral, 100 mg/kg, PO-100 mg/kg Compound A alone or + 7.9 mg/kg Compound B, 2 hr, group mean, read-out: Plasma Concentration of Compound A, Mean
quantityKind: concentration at 2 hr (ng/mL)
Give bare numbers, in ng/mL.

Data request, read-out concentration at 2 hr, for `O=c1[nH]c(=O)n([C@H]2C[C@H](O)[C@@H](CO)O2)cc1I` 788

###

assayComment: Pharmacokinetic profile of IUdR (20 mg/kg) with and without Tipiracil in rats following single oral administration
Type: in vivo, male Sprague-Dawley rats
testParameters: male, Sprague-Dawley, rat, plasma, po, 20 mg/kg, single oral dose, PO-20 (Compound A) alone or + 7.9 (Compound B) mg/kg, individual animals, read-out: AUC(0-t) of Compound A
quantityKind: AUC(0-t) (ng·h/mL)
Numbers only, in ng·h/mL.

Data request, read-out AUC(0-t), for `O=c1[nH]c(=O)n([C@H]2C[C@H](O)[C@@H](CO)O2)cc1I` 40.8

###

assayComment: Pharmacokinetic profile of IUdR (100 mg/kg) with and without Tipiracil in rats following single oral administration
Type: in vivo, male Sprague-Dawley rats
testParameters: male, Sprague-Dawley, rat, plasma, oral, 100 mg/kg, PO-100 mg/kg Compound A alone or + 7.9 mg/kg Compound B, 0.25 hr, group mean, read-out: Plasma Concentration of Compound A, Mean
quantityKind: concentration at 0.25 hr (ng/mL)
Give bare numbers, in ng/mL.

Data request, read-out concentration at 0.25 hr, for O=c1[nH]c(=O)n([C@H]2C[C@H](O)[C@@H](CO)O2)cc1I [Compound A, 5-iodo-2′-deoxyuridine] 552

###

assayComment: Pharmacokinetic profile of IUdR (20 mg/kg) with and without Tipiracil in rats following single oral administration
Assay type: in vivo, male Sprague-Dawley rats
testParameters: male, Sprague-Dawley, rat, plasma, po, 20 mg/kg, single oral dose, PO-20 (Compound A) alone or + 7.9 (Compound B) mg/kg, group mean, read-out: Cmax of Compound A, Mean
quantityKind: Cmax
Be sure to follow the number with its unit.

Data request, read-out Cmax, for `O=c1[nH]c(=O)n([C@H]2C[C@H](O)[C@@H](CO)O2)cc1I` 0.0577 µg/mL

###

assayComment: Pharmacokinetic profile of IUdR (20 mg/kg) with and without Tipiracil in rats following single oral administration
Assay type: in vivo, male Sprague-Dawley rats
testParameters: male, Sprague-Dawley, rat, plasma, oral, 20 mg/kg, PO-20 mg/kg Compound A alone or + 7.9 mg/kg Compound B, 0.5 hr, group mean, read-out: Plasma Concentration of Compound A, Mean
quantityKind: concentration at 0.5 hr (ng/mL)
One number for each entry, in ng/mL.

Data request, read-out concentration at 0.5 hr, for O=c1[nH]c(=O)n([C@H]2C[C@H](O)[C@@H](CO)O2)cc1I [Compound A, 5-iodo-2′-deoxyuridine] 57.7

###

assayComment: Pharmacokinetic profile of IUdR (100 mg/kg) with and without Tipiracil in rats following single oral administration
Type: in vivo, male Sprague-Dawley rats
testParameters: male, Sprague-Dawley, rat, plasma, oral, 100 mg/kg, PO-100 mg/kg Compound A alone or + 7.9 mg/kg Compound B, 8 hr, individual animals, LLOQ 10 ng/mL
quantityKind: concentration at 8 hr (ng/mL)
Numbers only, in ng/mL.

Data request, read-out concentration at 8 hr, for `O=c1[nH]c(=O)n([C@H]2C[C@H](O)[C@@H](CO)O2)cc1I` 14.1

###

assayComment: Pharmacokinetic profile of IUdR (100 mg/kg) with and without Tipiracil in rats following single oral administration
Format: in vivo, male Sprague-Dawley rats
testParameters: male, Sprague-Dawley, rat, plasma, oral, 100 mg/kg, PO-100 mg/kg Compound A alone or + 7.9 mg/kg Compound B, 0.25 hr, individual animals, LLOQ 10 ng/mL, read-out: Plasma Concentration of Compound A
quantityKind: concentration at 0.25 hr (ng/mL)
Give bare numbers, in ng/mL.

Data request, read-out concentration at 0.25 hr, for O=c1[nH]c(=O)n([C@H]2C[C@H](O)[C@@H](CO)O2)cc1I [Compound A, 5-iodo-2′-deoxyuridine] 489

###

assayComment: Pharmacokinetic profile of IUdR (100 mg/kg) with and without Tipiracil in rats following single oral administration
Type: in vivo, male Sprague-Dawley rats
testParameters: male, Sprague-Dawley, rat, plasma, oral, 100 mg/kg, PO-100 mg/kg Compound A alone or + 7.9 mg/kg Compound B, 1 hr, individual animals, LLOQ 10 ng/mL, read-out: Plasma Concentration of Compound A
quantityKind: concentration at 1 hr (ng/mL)
Give bare numbers, in ng/mL.

Data request, read-out concentration at 1 hr, for `O=c1[nH]c(=O)n([C@H]2C[C@H](O)[C@@H](CO)O2)cc1I` 556

###

assayComment: Pharmacokinetic profile of IUdR (20 mg/kg) with and without Tipiracil in rats following single oral administration
Format: in vivo, male Sprague-Dawley rats
testParameters: male, Sprague-Dawley, rat, plasma, 20 mg/kg, single oral dose, PO-20 (Compound A) alone or + 7.9 (Compound B) mg/kg, individual animals
quantityKind: Tmax
Be sure to follow the number with its unit.

Data request, read-out Tmax, for `O=c1[nH]c(=O)n([C@H]2C[C@H](O)[C@@H](CO)O2)cc1I` 30 min

###

assayComment: Pharmacokinetic profile of IUdR (100 mg/kg) with and without Tipiracil in rats following single oral administration
Format: in vivo, male Sprague-Dawley rats
testParameters: male, Sprague-Dawley, rat, plasma, oral, 100 mg/kg, PO-100 mg/kg Compound A alone or + 7.9 mg/kg Compound B, 4 hr, individual animals, LLOQ 10 ng/mL, read-out: Plasma Concentration of Compound A
quantityKind: concentration at 4 hr (ng/mL)
One number for each entry, in ng/mL.

Data request, read-out concentration at 4 hr, for `O=c1[nH]c(=O)n([C@H]2C[C@H](O)[C@@H](CO)O2)cc1I` 276

###

assayComment: Pharmacokinetic profile of IUdR (20 mg/kg) with and without Tipiracil in rats following single oral administration
Assay type: in vivo, male Sprague-Dawley rats
testParameters: male, Sprague-Dawley, rat, plasma, oral, 20 mg/kg, PO-20 mg/kg Compound A alone or + 7.9 mg/kg Compound B, 0.083 hr, individual animals, LLOQ 5 ng/mL, read-out: Plasma Concentration of Compound A
quantityKind: concentration at 0.083 hr (ng/mL)
Give bare numbers, in ng/mL.

Data request, read-out concentration at 0.083 hr, for `O=c1[nH]c(=O)n([C@H]2C[C@H](O)[C@@H](CO)O2)cc1I` 24.5

###

assayComment: Pharmacokinetic profile of IUdR (20 mg/kg) with and without Tipiracil in rats following single oral administration
Type: in vivo, male Sprague-Dawley rats
testParameters: male, Sprague-Dawley, rat, plasma, po, 20 mg/kg, oral administration, Example 2 (20 mg/kg IUdR, ± 7.9 mg/kg Tipiracil), comparison table, mean, read-out: Cmax of Compound A
quantityKind: Cmax (ng/mL)
One number for each entry, in ng/mL.

Data request, read-out Cmax, for O=c1[nH]c(=O)n([C@H]2C[C@H](O)[C@@H](CO)O2)cc1I [Compound A, 5-iodo-2′-deoxyuridine] 57.7

###

assayComment: Pharmacokinetic profile of IUdR (20 mg/kg) with and without Tipiracil in rats following single oral administration
Type: in vivo, male Sprague-Dawley rats
testParameters: male, Sprague-Dawley, rat, plasma, oral, 20 mg/kg, PO-20 mg/kg Compound A alone or + 7.9 mg/kg Compound B, 1 hr, group mean, read-out: Plasma Concentration of Compound A, Mean
Experimental: The purpose of this study was to determine the pharmacokinetics parameters of IUdR in male Sprague-Dawley rats following single oral (PO) administration the IUdR (i.e., Compound A) and Tipiracil (i.e., Compound B). A control formulation was prepared where Compound A was dissolved in 5% DMSO+95% PBS to yield a final concentration of 2 mg/mL for oral administration. The prepared formulation was colorless clear solution (pH˜8). […]
quantityKind: concentration at 1 hr (ng/mL)
Answers are plain numbers, in ng/mL.

Data request, read-out concentration at 1 hr, for O=c1[nH]c(=O)n([C@H]2C[C@H](O)[C@@H](CO)O2)cc1I [Compound A, 5-iodo-2′-deoxyuridine] 22.8

###

assayComment: Pharmacokinetic profile of IUdR (100 mg/kg) with and without Tipiracil in rats following single oral administration
Format: in vivo, male Sprague-Dawley rats
testParameters: male, Sprague-Dawley, rat, plasma, oral, 100 mg/kg, PO-100 mg/kg Compound A alone or + 7.9 mg/kg Compound B, 4 hr, group mean, read-out: Plasma Concentration of Compound A, Mean
Procedure: The purpose of this study was to determine the pharmacokinetics parameters of IUdR in male Sprague-Dawley rats following single oral (PO) administration the IUdR (i.e., Compound A) and Tipiracil (i.e., Compound B). A control formulation was prepared where Compound A was dissolved in 5% DMSO+95% PBS to yield a final concentration of 10 mg/mL for oral administration. The prepared formulation was white suspension (pH˜7). […]
quantityKind: concentration at 4 hr
Be sure to follow the number with its unit.

Data request, read-out concentration at 4 hr, for `O=c1[nH]c(=O)n([C@H]2C[C@H](O)[C@@H](CO)O2)cc1I` 345 ng/mL
